Source listed as patent US11130679B2.

ASSAY PROCEDURE: CCK-8 cytotoxicity in MCF-7 cells
Format: cell-based
RECORDED CONDITIONS: human, MCF-7 breast cancer epithelial cells; MCF-7, 6 μg mL^−1 of DOX, 24 h incubation; read-out: Cell viability reduction (cells killed)
Counter-ions that a name gives are not always drawn.
MEASURED PROPERTY: cytotoxicity at 24 h, 6 μg mL^−1

Give its cytotoxicity at 24 h, 6 μg mL^−1 value. Item: COc1cccc2c1C(=O)c1c(O)c3c(c(O)c1C2=O)C[C@@](O)(C(=O)CO)C[C@@H]3O[C@H]1C[C@H](N)[C@H](O)[C@H](C)O1 [free DOX, Doxorubicin hydrochloride salt]
~64%

====

ASSAY PROCEDURE: CCK-8 cytotoxicity in MCF-7 cells
Assay type: cell-based
RECORDED CONDITIONS: human, MCF-7 breast cancer epithelial cells; MCF-7, 6 μg mL^−1 of DOX, 48 h incubation; read-out: Cell viability reduction
Protocol: Cytotoxicity of the intact GSH-sensitive HMSiO2 NPs, TEOS HMSiO2 NPs, DOX-loaded GSH-sensitive HMSiO2 NPs, DOX-loaded TEOS HMSiO2 NPs, and free DOX was evaluated in MCF-7 breast cancer epithelial cells. Cells were cultured at 37° C. in 5% CO2 in DMEM with 10% FBS. Then, the cells were stained using Trypan Blue Stain 0.4% and read by Invitrogen Countess™ automated cell counter (Thermo Fisher Scientific Corporation, Grand Island, N.Y., USA). […]
Structures can show the parent of a compound that is named as a salt.
MEASURED PROPERTY: cytotoxicity at 48 h, 6 μg mL^−1

// query cytotoxicity at 48 h, 6 μg mL^−1 value for entry COc1cccc2c1C(=O)c1c(O)c3c(c(O)c1C2=O)C[C@@](O)(C(=O)CO)C[C@@H]3O[C@H]1C[C@H](N)[C@H](O)[C@H](C)O1 [free DOX, Doxorubicin hydrochloride salt]
~80%
